system: HEK293; assay: Selectivity ratio of Ki for human cloned dopamine D2L receptor H6.55A mutant to Ki for wild type human cloned dopamine D2L receptor expressed in HEK293 cells; type: cell-based
recorded-metric: Ratio Ki

Just so you know, measured Ratio Ki for `CSc1ccccc1N1CCN(CCCCNC(=O)c2cc3ccccn3n2)CC1` came out at 0.3

Just so you know, measured Ratio Ki for `COc1ccccc1N1CCN(Cc2cc3ccccn3n2)CC1` came out at 0.18

Just so you know, measured Ratio Ki for `Clc1ccc(N2CCN(CCCCCc3cc4ccccn4n3)CC2)cc1` came out at 0.74

Just so you know, measured Ratio Ki for `CSc1ccccc1N1CCN(CCCNC(=O)c2cnn3ccccc23)CC1` came out at 0.05

Just so you know, measured Ratio Ki for `Clc1ccc(N2CCN(Cc3cc4ccccn4n3)CC2)cc1` came out at 0.14

###

target: D(3) dopamine receptor (Homo sapiens); assay: Displacement of [3H]spiperone from human cloned dopamine D3 receptor L2.64F mutant expressed in HEK293 cells; format: cell-based
recorded-metric: Ki (nM)
The reply should be a number in nM, with the unit left off.

Just so you know, measured Ki for `CSc1ccccc1N1CCN(CCCCNC(=O)c2cc3ccccn3n2)CC1` came out at 58

Just so you know, measured Ki for `Clc1ccc(N2CCN(Cc3cc4ccccn4n3)CC2)cc1` came out at 1600

Just so you know, measured Ki for `CSc1ccccc1N1CCN(CCCNC(=O)c2cnn3ccccc23)CC1` came out at 740

Just so you know, measured Ki for `COc1ccccc1N1CCN(Cc2cc3ccccn3n2)CC1` came out at 720

###

target: D(3) dopamine receptor (Homo sapiens, UniProt P35462, S182I/V180E); assay: Displacement of [3H]spiperone from human cloned dopamine D3 receptor V180E/S182I mutant expressed in HEK293 cells
Sequence (P35462 as listed by the source V180E/S182I): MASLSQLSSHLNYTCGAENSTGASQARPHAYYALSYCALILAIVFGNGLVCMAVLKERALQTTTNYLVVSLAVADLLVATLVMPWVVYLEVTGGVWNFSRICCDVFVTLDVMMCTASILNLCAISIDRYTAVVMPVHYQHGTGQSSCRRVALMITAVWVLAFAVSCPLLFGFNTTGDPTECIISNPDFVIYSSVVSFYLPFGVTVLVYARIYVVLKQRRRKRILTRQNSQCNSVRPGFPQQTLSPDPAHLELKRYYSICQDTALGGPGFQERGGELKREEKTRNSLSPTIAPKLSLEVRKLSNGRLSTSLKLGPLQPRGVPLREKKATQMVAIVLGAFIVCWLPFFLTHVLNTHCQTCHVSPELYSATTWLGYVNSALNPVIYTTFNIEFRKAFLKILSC
Field: pKi. Provide a value for each of the molecules that follow.
// pKi: -log10(molar conc.)

Just so you know, measured pKi for `CSc1ccccc1N1CCN(CCCCNC(=O)c2cc3ccccn3n2)CC1` came out at 7.40

Just so you know, measured pKi for `COc1ccccc1N1CCN(Cc2cc3ccccn3n2)CC1` came out at 6.47

Just so you know, measured pKi for `CSc1ccccc1N1CCN(CCCNC(=O)c2cnn3ccccc23)CC1` came out at 8.10

Just so you know, measured pKi for `Clc1ccc(N2CCN(Cc3cc4ccccn4n3)CC2)cc1` came out at 5.60

###

Field: Ratio Ki. Provide a value for each of the molecules that follow.
system: HEK293; assay: Selectivity ratio of Ki for human cloned dopamine D2L receptor E181V/I183S mutant to Ki for wild type human cloned dopamine D2L receptor expressed in HEK293 cells; type: cell-based
Answer with the value's number alone.

Just so you know, measured Ratio Ki for `CSc1ccccc1N1CCN(CCCNC(=O)c2cnn3ccccc23)CC1` came out at 12

Just so you know, measured Ratio Ki for `COc1ccccc1N1CCN(Cc2cc3ccccn3n2)CC1` came out at 10.5

Just so you know, measured Ratio Ki for `Clc1ccc(N2CCN(Cc3cc4ccccn4n3)CC2)cc1` came out at 19

Just so you know, measured Ratio Ki for `CSc1ccccc1N1CCN(CCCCNC(=O)c2cc3ccccn3n2)CC1` came out at 3.4

###

molecular target: D(3) dopamine receptor (Homo sapiens, UniProt P35462, D110E); experiment: Displacement of [3H]spiperone from human cloned dopamine D3 receptor D3.32E mutant expressed in HEK293 cells
Sequence (P35462 as listed by the source D110E): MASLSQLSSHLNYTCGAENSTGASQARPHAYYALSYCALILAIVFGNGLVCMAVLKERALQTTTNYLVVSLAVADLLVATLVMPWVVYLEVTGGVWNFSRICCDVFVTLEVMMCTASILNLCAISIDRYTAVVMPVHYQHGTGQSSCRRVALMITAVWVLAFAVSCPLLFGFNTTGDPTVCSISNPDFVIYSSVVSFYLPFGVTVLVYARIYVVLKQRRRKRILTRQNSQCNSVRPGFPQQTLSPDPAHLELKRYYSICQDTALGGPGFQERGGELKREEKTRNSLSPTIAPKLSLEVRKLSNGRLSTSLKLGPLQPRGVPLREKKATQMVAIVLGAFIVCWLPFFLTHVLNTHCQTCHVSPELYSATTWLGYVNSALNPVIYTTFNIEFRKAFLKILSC
Field: pKi. Provide a value for each of the compounds that follow.
// pKi: -log10(molar conc.)

Just so you know, measured pKi for `CSc1ccccc1N1CCN(CCCCNC(=O)c2cc3ccccn3n2)CC1` came out at 9.30

Just so you know, measured pKi for `Clc1ccc(N2CCN(Cc3cc4ccccn4n3)CC2)cc1` came out at 4.92

Just so you know, measured pKi for `COc1ccccc1N1CCN(Cc2cc3ccccn3n2)CC1` came out at 6.17

Just so you know, measured pKi for `CSc1ccccc1N1CCN(CCCNC(=O)c2cnn3ccccc23)CC1` came out at 6.19
